- System: SR leukemia
- Assay summary: NCI tumour cell line growth inhibition, 48 h; in the data active = GI50 below about 0.43 µM; inactive = the rest
Outcomes you can answer with include only these: yes = active, no = inactive

Incoming: Test call for this molecule, please: `O=C1c2ccccc2-c2c1c1ccc([N+](=O)[O-])cc1c(=O)n2CCCBr`
Outgoing: yes

Incoming: Test call for this molecule, please: `COc1cc2nc(N3CCCC3)nc(NCC3CCCCC3)c2cc1OC`
Outgoing: yes

Incoming: Test call for this molecule, please: `CN(C)c1ccc2c(c1)Sc1cc(N(C)C)ccc1N2C(=O)c1ccccc1`
Outgoing: no

Incoming: Test call for this molecule, please: `O=C(/C(=C/c1ccc([N+](=O)[O-])cc1)c1ccccc1)c1ccccc1`
Outgoing: no

Incoming: Test call for this molecule, please: `C=C1CC[C@@H]2[C@](C)(COC(C)=O)[C@@H](O)CC[C@@]2(C)[C@@H]1COc1ccc2ccc(=O)oc2c1`
Outgoing: no

Where do the numbers come from? From PubChem BioAssay (NCI).
